Test system: Phytophthora cactorum VKM F-985
Experiment: Mycelial radial growth inhibition
Type: cell-based
Settings: Phytophthora cactorum, 72 h; 27 nmol/mL; age of the fungus 3 days; read-out: Inhibition value, I (%)
MEASUREMENT_KIND: inhibition of growth (%)
Lab book: enter the figure in %, no units written.

input: Provide measured inhibition of growth value, entry: Cc1ccc[n+](CC(=O)N/N=C2\C(=O)N(Cc3c(F)cccc3Cl)c3ccccc32)c1C
output: 30

----------
Reported values of inhibition of growth at 5 µM for individual entries
Test system: Fusarium oxysporum IBPPM 543
Assay: Mycelial radial growth inhibition
Assay type: cell-based
Details: Fusarium oxysporum, IBPPM543, 216 h; 5 nmol/mL; age of the fungus 9 days; read-out: Inhibition value, I (%)
Numeric only. Scale: %

MOL | inhibition of growth at 5 µM [%]
O=C(C[n+]1ccccc1)NN=C1C(=O)N(Cc2ccccc2F)c2ccc(F)cc21.[Cl-] | 18
O=C(C[n+]1ccccc1)NN=C1C(=O)N(Cc2c(F)c(F)c(F)c(F)c2F)c2ccc(F)cc21.[Cl-] | 16
Cc1ccc[n+](CC(=O)N/N=C2\C(=O)N(Cc3cccc(C(F)(F)F)c3)c3ccccc32)c1C | 22

input: Supply recorded inhibition of growth at 5 µM for Cc1ccc[n+](CC(=O)N/N=C2\C(=O)N(Cc3c(F)cccc3Cl)c3ccccc32)c1C here.
output: 13

input: Respond only with inhibition of growth at 5 µM recorded for O=C(C[n+]1ccccc1)NN=C1C(=O)N(Cc2c(F)cccc2Cl)c2ccc(F)cc21.[Cl-]
output: 19

input: Read off the recorded inhibition of growth at 5 µM for Cc1ccc[n+](CC(=O)N/N=C2\C(=O)N(Cc3ccccc3F)c3ccccc32)c1C
output: 33

----------
System: five representative phytopathogens
Experiment: Agar-well diffusion, bactericidal activity over the panel of phytopathogens
Assay type: cell-based
Settings: 36 h, 2 mM solutions; dependent on the test system used; read-out: inhibition zone width (mm), range over the test systems
MEASUREMENT_KIND: zone of inhibition at 2000 µM

Solved entries (count: 6):
MOL | OBSERVED_VALUE
Cc1ccc[n+](CC(=O)N/N=C2\C(=O)N(Cc3cccc(C(F)(F)F)c3)c3ccccc32)c1C | 6 to 9 mm
Cc1ccc2c(c1)C(=NNC(=O)C[n+]1ccccc1)C(=O)N2Cc1cccc(C(F)(F)F)c1.[Cl-] | 4 to 7 mm
O=C(C[n+]1ccccc1)NN=C1C(=O)N(Cc2c(F)cccc2Cl)c2ccc(F)cc21.[Cl-] | 2.5 to 4 mm
O=C(C[n+]1ccccc1)NN=C1C(=O)N(Cc2c(F)c(F)c(F)c(F)c2F)c2ccc(F)cc21.[Cl-] | 2 to 4 mm
O=C(C[n+]1ccccc1)NN=C1C(=O)N(Cc2cccc(C(F)(F)F)c2)c2ccc(F)cc21.[Cl-] | 4 to 7 mm
O=C(C[n+]1ccccc1)NN=C1C(=O)N(Cc2ccccc2F)c2ccc(F)cc21.[Cl-] | 3 to 6 mm

input: Find the measured zone of inhibition at 2000 µM of Cc1ccc[n+](CC(=O)N/N=C2\C(=O)N(Cc3c(F)cccc3Cl)c3ccccc32)c1C with five representative phytopathogens as test system.
output: 4 to 7 mm

input: Find the measured zone of inhibition at 2000 µM of Cc1ccc[n+](CC(=O)N/N=C2\C(=O)N(Cc3ccccc3F)c3ccccc32)c1C with five representative phytopathogens as test system.
output: 2 to 6 mm

----------
System: Phytophthora cactorum VKM F-985
Assay: Mycelial radial growth inhibition
Format: cell-based
Conditions: Phytophthora cactorum, 120 h; 1 nmol/mL; age of the fungus 5 days; read-out: Inhibition value, I (%)
MEASUREMENT_KIND: inhibition of growth at 1 µM

COMPOUND | inhibition of growth at 1 µM
O=C(C[n+]1ccccc1)NN=C1C(=O)N(Cc2c(F)cccc2Cl)c2ccc(F)cc21.[Cl-] [Compound 5b] | 26%
Cc1ccc2c(c1)C(=NNC(=O)C[n+]1ccccc1)C(=O)N2Cc1cccc(C(F)(F)F)c1.[Cl-] [Compound 5e] | 16%

input: Using Phytophthora cactorum VKM F-985 as the test system, report measured inhibition of growth at 1 µM of Cc1ccc[n+](CC(=O)N/N=C2\C(=O)N(Cc3cccc(C(F)(F)F)c3)c3ccccc32)c1C [Compound 7c] .
output: 11%

input: Quote inhibition of growth at 1 µM with test system Phytophthora cactorum VKM F-985 for O=C(C[n+]1ccccc1)NN=C1C(=O)N(Cc2c(F)c(F)c(F)c(F)c2F)c2ccc(F)cc21.[Cl-] [Compound 5d]
output: 12%

----------
Test system: Phytophthora cactorum VKM F-985
Experiment: Mycelial radial growth inhibition
Type: cell-based
Conditions: Phytophthora cactorum, 72 h; 27 nmol/mL; age of the fungus 3 days; read-out: Inhibition value, I (%)
MEASUREMENT_KIND: inhibition of growth (%)
The reply should be a number in %, with the unit left off.

Example compounds with recorded inhibition of growth:
MOL | TEST_TARGET | OBSERVED_VALUE
Cc1ccc2c(c1)C(=NNC(=O)C[n+]1ccccc1)C(=O)N2Cc1cccc(C(F)(F)F)c1.[Cl-] | Phytophthora cactorum VKM F-985 | 28
O=C(C[n+]1ccccc1)NN=C1C(=O)N(Cc2ccccc2F)c2ccc(F)cc21.[Cl-] | Phytophthora cactorum VKM F-985 | 40
O=C(C[n+]1ccccc1)NN=C1C(=O)N(Cc2cccc(C(F)(F)F)c2)c2ccc(F)cc21.[Cl-] | Phytophthora cactorum VKM F-985 | 36

Here is the next item to consider.
input: Look up and report measured inhibition of growth for this entry: Cc1ccc[n+](CC(=O)N/N=C2\C(=O)N(Cc3cccc(C(F)(F)F)c3)c3ccccc32)c1C
output: 48

----------
Test system: Fusarium oxysporum IBPPM 543
Test: Mycelial radial growth inhibition
Assay type: cell-based
Details: Fusarium oxysporum, IBPPM543, 72 h; 1 nmol/mL; age of the fungus 3 days; read-out: Inhibition value, I (%)
MEASUREMENT_KIND: inhibition of growth at 1 µM (%)
Respond numerically; units are % and should not be typed.

MOL | MEASUREMENT_KIND | OBSERVED_VALUE
O=C(C[n+]1ccccc1)NN=C1C(=O)N(Cc2ccccc2F)c2ccc(F)cc21.[Cl-] | inhibition of growth at 1 µM | 34
Cc1ccc[n+](CC(=O)N/N=C2\C(=O)N(Cc3cccc(C(F)(F)F)c3)c3ccccc32)c1C | inhibition of growth at 1 µM | 22
Cc1ccc[n+](CC(=O)N/N=C2\C(=O)N(Cc3ccccc3F)c3ccccc32)c1C | inhibition of growth at 1 µM | 9

// below: inhibition of growth at 1 µM requested for another compound
input: Give the reported inhibition of growth at 1 µM for this compound. Cc1ccc2c(c1)C(=NNC(=O)C[n+]1ccccc1)C(=O)N2Cc1cccc(C(F)(F)F)c1.[Cl-]
output: 33

----------
In this section, each of the compounds is paired with its reported inhibition of growth at 40 µM.
Test system: Fusarium oxysporum IBPPM 543
Assay: Mycelial radial growth inhibition
Type: cell-based
Conditions: Fusarium oxysporum, IBPPM543, 72 h; 40 nmol/mL; age of the fungus 3 days; read-out: Inhibition value, I (%)
Description: Plant pathogenic bacterial strains Micrococcus luteus B-109, Pectobacterium atrosepticum 1043, Pectobacterium carotovorum subsp. carotovorum MI, Pseudomonas fluorescens EL-2.1, and Xanthomonas campestris B-610 and the fungal strain Fusarium oxysporum IBPPM 543 were from the Collection of Rhizosphere Microorganisms, IBPPM RAS (WFCC no. 975, WDCM no. 1021) (CM IBPPM, http://collection.ibppm.ru). […]
The reply should consist of the numeric value with the unit placed after it.

COMPOUND | OBSERVED_VALUE
O=C(C[n+]1ccccc1)NN=C1C(=O)N(Cc2c(F)cccc2Cl)c2ccc(F)cc21.[Cl-] [Compound 5b] | 53%
Cc1ccc[n+](CC(=O)N/N=C2\C(=O)N(Cc3c(F)cccc3Cl)c3ccccc32)c1C [Compound 7b] | 55%
O=C(C[n+]1ccccc1)NN=C1C(=O)N(Cc2ccccc2F)c2ccc(F)cc21.[Cl-] [Compound 5a] | 52%

Below: the item to evaluate.
input: // Input: O=C(C[n+]1ccccc1)NN=C1C(=O)N(Cc2cccc(C(F)(F)F)c2)c2ccc(F)cc21.[Cl-] [Compound 5c] . Output its inhibition of growth at 40 µM only.
output: 57%

----------
Reported inhibition of growth at 7 µM values are given for each entry in this list.
Tested on: Phytophthora cactorum VKM F-985
Test: Mycelial radial growth inhibition
Format: cell-based
Conditions: Phytophthora cactorum, 168 h; 7 nmol/mL; age of the fungus 7 days; read-out: Inhibition value, I (%)
Kindly provide the numeric value in % only, without the unit symbol.

COMPOUND | TEST_TARGET | inhibition of growth at 7 µM [%]
Cc1ccc[n+](CC(=O)N/N=C2\C(=O)N(Cc3c(F)cccc3Cl)c3ccccc32)c1C [Compound 7b] | Phytophthora cactorum VKM F-985 | 22
Cc1ccc[n+](CC(=O)N/N=C2\C(=O)N(Cc3cccc(C(F)(F)F)c3)c3ccccc32)c1C [Compound 7c] | Phytophthora cactorum VKM F-985 | 22
O=C(C[n+]1ccccc1)NN=C1C(=O)N(Cc2cccc(C(F)(F)F)c2)c2ccc(F)cc21.[Cl-] [Compound 5c] | Phytophthora cactorum VKM F-985 | 14
Cc1ccc2c(c1)C(=NNC(=O)C[n+]1ccccc1)C(=O)N2Cc1cccc(C(F)(F)F)c1.[Cl-] [Compound 5e] | Phytophthora cactorum VKM F-985 | 23

We next turn to a different compound, shown below.
input: Enter inhibition of growth at 7 µM (test system Phytophthora cactorum VKM F-985) for Cc1ccc[n+](CC(=O)N/N=C2\C(=O)N(Cc3ccccc3F)c3ccccc32)c1C [Compound 7a]
output: 10
